Test system: MDA-MB-231
Assay protocol: Antiproliferative activity against human MDA-MB-231 cells after 72 hrs by SRB assay
Type: functional, cell-based
Experimental setup: MDA-MB-231, 72 h
Quantity measured: IC50 (µM)

# annotated cases, reported IC50 shown
[[record]]
compound = "CC(C)C[C@H](O)C(=O)NS(=O)(=O)OC[C@H]1O[C@@H](n2cnc3c(N)ncnc32)[C@H](O)[C@@H]1O"
measure_unit = "µM"
experimental_result = 2.61

[[record]]
compound = "Nc1nc(I)nc2c1ncn2[C@@H]1O[C@H](COS(=O)(=O)NC(=O)[C@@H](O)[C@H](O)C2CC2)[C@@H](O)[C@H]1O"
measure_unit = "µM"
experimental_result = 16.7

[[record]]
compound = "CC(C)[C@@H](O)[C@H](O)C(=O)NS(=O)(=O)OC[C@H]1O[C@@H](n2cnc3c(N)ncnc32)C[C@@H]1O"
measure_unit = "µM"
experimental_result = 6.27

[[record]]
compound = "COc1cc([C@@H]2c3cc4c(cc3[C@@H](O[C@@H]3O[C@@H]5CO[C@@H](C)O[C@H]5[C@H](O)[C@H]3O)[C@H]3COC(=O)[C@H]23)OCO4)cc(OC)c1O [ETOPOSIDE]"
measure_unit = "µM"
experimental_result = 3.38


1 = Nc1ncnc2c1ncn2[C@@H]1O[C@H](COS(=O)(=O)NC(=O)[C@@H](O)[C@H](O)C2CC2)[C@@H](O)[C@@H]1O
2 = CC(C)C[C@H](Cl)C(=O)NS(=O)(=O)OC[C@H]1O[C@@H](n2cnc3c(N)nc(Cl)nc32)[C@H](O)[C@@H]1O
## Task Smaller IC50 value? Options are 1 and 2 Please identify the chosen entry by its label.
## Result 2

====

Measured on: Leucine--tRNA ligase, cytoplasmic (Homo sapiens) (UniProt Q9P2J5)
Sequence (Q9P2J5 whole entry, looked up): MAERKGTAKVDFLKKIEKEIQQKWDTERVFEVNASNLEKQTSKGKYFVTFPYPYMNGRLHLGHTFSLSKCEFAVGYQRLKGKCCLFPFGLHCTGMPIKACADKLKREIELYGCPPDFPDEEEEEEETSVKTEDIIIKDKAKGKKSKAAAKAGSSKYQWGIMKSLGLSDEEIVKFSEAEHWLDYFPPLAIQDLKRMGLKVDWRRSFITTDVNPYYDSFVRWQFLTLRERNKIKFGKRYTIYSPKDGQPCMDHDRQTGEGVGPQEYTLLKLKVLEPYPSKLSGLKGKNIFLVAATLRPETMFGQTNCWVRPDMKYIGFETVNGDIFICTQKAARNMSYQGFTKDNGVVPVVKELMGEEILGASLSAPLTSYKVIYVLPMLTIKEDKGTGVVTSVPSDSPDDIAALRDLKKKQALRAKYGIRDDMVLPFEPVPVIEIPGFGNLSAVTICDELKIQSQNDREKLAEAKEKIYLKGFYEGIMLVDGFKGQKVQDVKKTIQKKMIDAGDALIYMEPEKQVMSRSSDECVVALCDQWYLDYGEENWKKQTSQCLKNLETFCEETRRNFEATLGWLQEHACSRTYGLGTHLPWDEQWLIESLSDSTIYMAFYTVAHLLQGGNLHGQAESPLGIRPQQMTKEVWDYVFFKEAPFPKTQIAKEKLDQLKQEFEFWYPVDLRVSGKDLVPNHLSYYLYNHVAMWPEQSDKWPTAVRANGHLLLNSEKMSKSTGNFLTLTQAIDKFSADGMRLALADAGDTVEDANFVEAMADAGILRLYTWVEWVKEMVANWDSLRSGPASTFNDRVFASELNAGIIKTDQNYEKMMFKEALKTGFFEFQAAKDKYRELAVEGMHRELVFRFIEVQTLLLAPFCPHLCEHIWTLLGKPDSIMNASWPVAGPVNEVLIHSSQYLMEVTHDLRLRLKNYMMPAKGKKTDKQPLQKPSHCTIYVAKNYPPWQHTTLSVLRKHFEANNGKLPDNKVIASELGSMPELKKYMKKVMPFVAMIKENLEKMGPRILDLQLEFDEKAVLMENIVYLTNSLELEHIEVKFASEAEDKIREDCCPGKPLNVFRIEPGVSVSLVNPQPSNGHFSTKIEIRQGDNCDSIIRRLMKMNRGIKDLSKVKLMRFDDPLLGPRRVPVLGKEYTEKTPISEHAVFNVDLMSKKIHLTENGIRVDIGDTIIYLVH
Assay protocol: Inhibition of Leucyl-tRNA synthetase-mediated mTORC1 signaling activation in human HEK293 cells assessed as reduction in leucine-induced S6K phosphorylation at 200 uM preincubated for 50 mins followed by leucine-stimulation and measured after 10 mins by Western blot analysis
Format: cell-based
Calls of active or inactive are those of the source. No cut-off for these calls is given here.
# valid calls are active, inactive; nothing else

[[record]]
query_smiles = "CO[C@H](C(=O)NS(=O)(=O)OC[C@H]1O[C@@H](n2cnc3c(N)ncnc32)[C@H](O)[C@@H]1O)[C@H](OC)C(C)C"
category_label = "inactive"

[[record]]
query_smiles = "CC(C)c1cc(C(=O)NS(=O)(=O)OC[C@H]2O[C@@H](n3cnc4c(N)ncnc43)[C@H](O)[C@@H]2O)[nH]n1"
category_label = "inactive"


Kindly review the next compound as well.
## Task Hey, what did the test say about CC(C)/C=C/C(=O)NS(=O)(=O)OC[C@H]1O[C@@H](n2cnc3c(N)ncnc32)[C@H](O)[C@@H]1O ?
## Result active

====

Tested on: MDA-MB-231
Assay protocol: Antiproliferative activity against human MDA-MB-231 cells after 72 hrs by SRB assay
Assay type: functional, cell-based
Experimental setup: MDA-MB-231, 72 h
Parameter: IC50. Scope: all listed entries.

# annotated cases, reported IC50 shown
[[record]]
query_smiles = "CC(C)[C@@H](O)[C@H](O)C(=O)NS(=O)(=O)OC[C@H]1O[C@@H](n2cnc3c(=O)[nH]cnc32)[C@H](O)[C@@H]1O"
experimental_result = "> 20 µM"

[[record]]
query_smiles = "CO[C@H](C(=O)NS(=O)(=O)OC[C@H]1O[C@@H](n2cnc3c(N)nc(Cl)nc32)[C@H](O)[C@@H]1O)[C@H](OC)C(C)C"
experimental_result = "> 20 µM"


Record CC(C)C[C@H](O)C(=O)NS(=O)(=O)OC[C@H]1O[C@@H](n2cnc3c(=O)[nH]cnc32)[C@H](O)[C@@H]1O / MDA-MB-231, IC50 recorded as > 20 µM
